tgt: UniProtKB P04629
assay_overview: TrkA functional activity, DiscoverX PathHunter assay (NGF-stimulated U2OS cells)
condition_notes: U2OS cells expressing human TrkA-Prolink, Shc1-EA and p75NTR; compound 1 h, then NGF (~80% of maximal response) 3 h; luminescence
pIC50: −log10 of the molar value.
Parameter: pIC50. Scope: all listed entries.
value_type: pIC50

[
  {
    "structure": "Cn1ccc(-c2cc(C(=O)Nc3c(-c4ccccc4)ccc4cc(C(C)(C)O)[nH]c34)ccc2C(F)(F)F)n1",
    "number": 9.18
  },
  {
    "structure": "CC(C)(O)c1cnc2c(NC(=O)c3cc(-c4ncccn4)c(C(F)(F)F)cc3Cl)c(-c3ccccc3)ccn12",
    "number": 7.80
  },
  {
    "structure": "Cn1ccc(-c2cc(C(=O)Nc3c(-c4ccccc4)ccc4c(C(C)(C)O)cnn34)c(F)cc2C(F)(F)F)n1",
    "number": 9.40
  }
]

----------
Parameter: log10 of IC50. Scope: all listed entries.
tgt: human TrkA receptor (Homo sapiens (Human), UniProt P04629)
Sequence (P04629 33-796): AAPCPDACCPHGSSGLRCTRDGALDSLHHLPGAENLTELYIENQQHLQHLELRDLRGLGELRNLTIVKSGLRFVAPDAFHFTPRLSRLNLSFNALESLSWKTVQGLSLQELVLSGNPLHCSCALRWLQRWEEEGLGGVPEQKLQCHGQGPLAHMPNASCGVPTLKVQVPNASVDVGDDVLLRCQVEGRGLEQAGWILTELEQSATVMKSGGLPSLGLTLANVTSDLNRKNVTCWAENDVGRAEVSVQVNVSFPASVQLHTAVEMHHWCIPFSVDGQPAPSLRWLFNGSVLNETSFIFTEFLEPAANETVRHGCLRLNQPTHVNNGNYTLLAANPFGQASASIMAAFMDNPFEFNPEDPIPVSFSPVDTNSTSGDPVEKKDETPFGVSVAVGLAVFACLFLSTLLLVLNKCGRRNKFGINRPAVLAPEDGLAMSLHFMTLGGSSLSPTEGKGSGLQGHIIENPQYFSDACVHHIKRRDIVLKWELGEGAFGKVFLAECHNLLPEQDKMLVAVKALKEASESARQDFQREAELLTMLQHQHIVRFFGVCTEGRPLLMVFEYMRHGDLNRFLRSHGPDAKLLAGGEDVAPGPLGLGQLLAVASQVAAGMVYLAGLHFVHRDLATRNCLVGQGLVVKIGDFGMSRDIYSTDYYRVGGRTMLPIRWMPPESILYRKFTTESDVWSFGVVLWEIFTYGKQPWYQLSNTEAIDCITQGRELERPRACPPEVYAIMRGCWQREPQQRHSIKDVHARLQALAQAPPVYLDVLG
assay_overview: TrkA functional activity, DiscoverX PathHunter assay (NGF-stimulated U2OS cells)
condition_notes: U2OS cells expressing human TrkA-Prolink, Shc1-EA and p75NTR; compound 1 h, then NGF (~80% of maximal response) 3 h; luminescence
value_type: log10 of IC50 (log10 of the value in nM)

[
  {
    "compound": "CC(O)c1cnc2c(NC(=O)c3cc(-c4ncccn4)c(C(F)(F)F)cc3F)c(-c3ccc(F)cc3)ccn12 (single isomer, unassigned) [Compound 53]",
    "log10 of IC50": 1.46
  },
  {
    "compound": "CC(O)c1cnc2c(NC(=O)c3cc(-c4ncccn4)c(C(F)(F)F)cc3F)c(-c3ccccc3)ncn12 (single isomer, unassigned) [Compound 72]",
    "log10 of IC50": 0.71
  },
  {
    "compound": "NC(=O)c1cnc2c(NC(=O)c3cc(-c4ccccn4)c(C(F)(F)F)cc3F)c(-c3ccccc3)ccn12 [Compound 21]",
    "log10 of IC50": 0.57
  },
  {
    "compound": "CC(C)(O)c1cnn2c(NC(=O)c3cc(-c4ncccn4)c(C(F)(F)F)cc3F)c(-c3ccccc3)ccc12 [Compound 38]",
    "log10 of IC50": 0.26
  },
  {
    "compound": "CC(C)(O)c1cnc2c(NC(=O)c3cc(-c4ccccn4)c(C(F)(F)F)cc3F)c(-c3ccccc3)ccn12 [Compound 19]",
    "log10 of IC50": 0.28
  },
  {
    "compound": "CC(C)(O)c1cnc2c(NC(=O)c3cc(-c4ccccn4)c(C(F)(F)F)cc3Cl)c(-c3ccccc3)ccn12 [Compound 18]",
    "log10 of IC50": 0.83
  }
]

----------
Parameter: IC50. Scope: all listed entries.
tgt: UniProt:P04629
assay_overview: TrkA functional activity, DiscoverX PathHunter assay (NGF-stimulated U2OS cells)
Type: cell-based
condition_notes: U2OS cells expressing human TrkA-Prolink, Shc1-EA and p75NTR; compound 1 h, then NGF (~80% of maximal response) 3 h; luminescence
value_type: IC50

[
  {
    "molecule": "CC(O)c1cnc2c(NC(=O)c3cc(-c4ncccn4)c(C(F)(F)F)cc3F)c(-c3ccccc3)ncn12 (racemic) [Compound 71]",
    "value_type": "IC50",
    "result": "6.6 nM"
  },
  {
    "molecule": "Cn1ccc(-c2cc(C(=O)Nc3c(-c4ccccc4)ccn4c(CO)cnc34)c(F)cc2C(F)(F)F)n1 [Compound 23]",
    "value_type": "IC50",
    "result": "0.52 nM"
  },
  {
    "molecule": "NC(=O)c1cnc2c(NC(=O)c3cc(-c4ncccn4)c(C(F)(F)F)cc3F)c(-c3ccccc3)ccn12 [Compound 7]",
    "value_type": "IC50",
    "result": "2.1 nM"
  },
  {
    "molecule": "Cn1ccc(-c2cc(C(=O)Nc3c(-c4ccccc4)ccc4nc(C(C)(C)O)sc34)ccc2C(F)(F)F)n1 [Compound 3]",
    "value_type": "IC50",
    "result": "323 nM"
  },
  {
    "molecule": "CC(O)c1cnc2c(NC(=O)c3cc(-c4ccccn4)c(C(F)(F)F)cc3F)c(-c3ccccc3)ccn12 (single isomer, unassigned) [Compound 29]",
    "value_type": "IC50",
    "result": "1.7 nM"
  },
  {
    "molecule": "CC(C)(O)c1cc2cc(-c3ccccc3)c(NC(=O)c3cc(-c4ncccn4)c(C(F)(F)F)cc3F)cc2[nH]1 [Compound 44]",
    "value_type": "IC50",
    "result": "96 nM"
  },
  {
    "molecule": "Cn1ccc(-c2cc(C(=O)Nc3c(-c4ccccc4)ccc4nc(C(C)(C)O)cn34)ccc2C(F)(F)F)n1 [Compound 1]",
    "value_type": "IC50",
    "result": "17 nM"
  }
]

----------
Parameter: IC50. Scope: all listed entries.
tgt: human TrkA receptor (Homo sapiens (Human))
assay_overview: TrkA functional activity, DiscoverX PathHunter assay (NGF-stimulated U2OS cells)
condition_notes: U2OS cells expressing human TrkA-Prolink, Shc1-EA and p75NTR; compound 1 h, then NGF (~80% of maximal response) 3 h; luminescence

[
  {
    "compound": "Cn1ccc(-c2cc(C(=O)Nc3c(-c4ccccc4)ccn4c(C(C)(C)O)cnc34)c(F)cc2C(F)(F)F)n1 [Compound 16]",
    "IC50": "0.2 nM"
  },
  {
    "compound": "Cn1ccc(-c2cc(C(=O)Nc3c(-c4ccccc4)ccn4c(C(N)=O)cnc34)ccc2C(F)(F)F)n1 [Compound 12]",
    "IC50": "5.7 nM"
  },
  {
    "compound": "CC(C)(O)c1n[nH]c2c(NC(=O)c3cc(-c4ncccn4)c(C(F)(F)F)cc3F)c(-c3ccccc3)ccc12 [Compound 45]",
    "IC50": "4.3 nM"
  },
  {
    "compound": "Cn1ccc(-c2cc(C(=O)Nc3cn4cncc4nc3-c3ccccc3)c(F)cc2C(F)(F)F)n1 [Compound 64]",
    "IC50": "5.5 nM"
  },
  {
    "compound": "CC(C)(O)c1ncn2c(NC(=O)c3cc(-c4ncccn4)c(C(F)(F)F)cc3F)c(-c3ccccc3)ccc12 [Compound 59]",
    "IC50": "25 nM"
  },
  {
    "compound": "Cn1ccc(-c2cc(C(=O)Nc3c(-c4ccccc4)ccc4c(C(C)(C)O)cnn34)ccc2C(F)(F)F)n1 [Compound 37]",
    "IC50": "4.5 nM"
  },
  {
    "compound": "CC(O)c1cnc2c(NC(=O)c3cc(-c4ccn(C)n4)c(C(F)(F)F)cc3F)c(-c3ccccc3)ccn12 (single isomer, unassigned) [Compound 26]",
    "IC50": "0.31 nM"
  }
]

----------
Parameter: IC50. Scope: all listed entries.
tgt: human TrkA receptor (Homo sapiens (Human))
assay_overview: TrkA functional activity, DiscoverX PathHunter assay (NGF-stimulated U2OS cells)
condition_notes: U2OS cells expressing human TrkA-Prolink, Shc1-EA and p75NTR; compound 1 h, then NGF (~80% of maximal response) 3 h; luminescence

[
  {
    "molecule": "Cn1ccc(-c2cc(C(=O)Nc3c(-c4ccccc4)ccn4cc(C(C)(C)O)nc34)ccc2C(F)(F)F)n1",
    "IC50": "139 nM"
  },
  {
    "molecule": "Cn1ccc(-c2cc(C(=O)Nc3cn4c(CO)ncc4cc3-c3ccccc3)c(F)cc2C(F)(F)F)n1",
    "IC50": "4.4 nM"
  },
  {
    "molecule": "CC(C)(O)c1cnc2c(NC(=O)c3cc(-c4ncccn4)c(C(F)(F)F)cc3F)c(-c3cccc(CO)c3)ccn12",
    "IC50": "201 nM"
  },
  {
    "molecule": "CC(O)c1cnc2c(NC(=O)c3ccc(C(F)(F)F)c(-c4ccn(C)n4)c3)c(-c3ccccc3)ccn12 (single isomer, unassigned) [Compound 15]",
    "IC50": "2.2 nM"
  },
  {
    "molecule": "Cn1ccc(-c2cc(C(=O)Nc3c(-c4ccccc4)ccn4c(C(N)=O)cnc34)c(F)cc2C(F)(F)F)n1",
    "IC50": "0.51 nM"
  },
  {
    "molecule": "Cn1ccc(-c2cc(C(=O)Nc3c(-c4ccccc4)ncn4cnnc34)ccc2C(F)(F)F)n1",
    "IC50": "6.3 nM"
  },
  {
    "molecule": "Cn1ccc(-c2cc(C(=O)Nc3c(-c4ccccc4)ccn4c(CO)cnc34)sc2C(F)(F)F)n1",
    "IC50": "48 nM"
  }
]

----------
Parameter: IC50. Scope: all listed entries.
tgt: human TrkA receptor (Homo sapiens (Human))
assay_overview: TrkA functional activity, DiscoverX PathHunter assay (NGF-stimulated U2OS cells)
condition_notes: U2OS cells expressing human TrkA-Prolink, Shc1-EA and p75NTR; compound 1 h, then NGF (~80% of maximal response) 3 h; luminescence

[
  {
    "molecule": "Cc1ccccc1-c1ccn2c(C(C)(C)O)cnc2c1NC(=O)c1cc(-c2ncccn2)c(C(F)(F)F)cc1F [Compound 55]",
    "IC50": "82 nM"
  },
  {
    "molecule": "CC(O)c1n[nH]c2c(NC(=O)c3ccc(C(F)(F)F)c(-c4ccn(C)n4)c3)c(-c3ccccc3)ccc12 (single isomer, unassigned) [Compound 49]",
    "IC50": "2 nM"
  },
  {
    "molecule": "CC(O)c1cnc2c(NC(=O)c3cc(-c4ccn(C)n4)c(C(F)(F)F)cc3F)c(-c3ccccc3)ccn12 (single isomer, unassigned) [Compound 25]",
    "IC50": "0.81 nM"
  },
  {
    "molecule": "CC(O)c1nc2c(NC(=O)c3ccc(C(F)(F)F)c(-c4ccn(C)n4)c3)c(-c3ccccc3)ccc2s1 (racemic) [Compound 6]",
    "IC50": "11 nM"
  },
  {
    "molecule": "CC(C)(O)c1cnc2c(NC(=O)c3cc(-c4ncccn4)c(C(F)(F)F)cc3F)c(-c3ccccc3)ncn12 [Compound 73]",
    "IC50": "4.8 nM"
  },
  {
    "molecule": "Cc1ccccc1-c1ccn2c(C(N)=O)cnc2c1NC(=O)c1cc(-c2ccn(C)n2)c(C(F)(F)F)cc1F [Compound 56]",
    "IC50": "29 nM"
  }
]
